system: rodent lifetime carcinogenesis bioassay, tumor incidence TD50; assay: carcinogenic potency in animals, long-term in vivo studies, CPDB compilation (AID 1745844); conditions: mouse; strain C57BL/6JfC3Hf/Nctr x BALB/cStCrlfC3Hf/Nctr; males; in drinking water; site: liver; lesion: hepatocellular adenoma; dosed 60 weeks; study length 60 weeks
Metric: TD50

Name the reported TD50 value associated with the molecule Nc1ccc(-c2ccc(N)cc2)cc1
60.8 mg/kg/day

====

test system: rodent lifetime carcinogenesis bioassay, tumor incidence TD50; experiment: carcinogenic potency in animals, long-term in vivo studies, CPDB compilation (AID 1745844); details: rat; strain Fischer 344; males; in drinking water; site: preputial gland; lesion: adenoma + carcinoma; dosed 58 weeks; study length 60 weeks
Metric: TD50

Given the molecule Cc1cc(-c2ccc(N)c(C)c2)ccc1N , what is its reported TD50?
3.96 mg/kg/day

====

tested on: rodent lifetime carcinogenesis bioassay, tumor incidence TD50; assay: carcinogenic potency in animals, long-term in vivo studies, CPDB compilation (AID 1745844); conditions: rat; strain Sprague-Dawley; females; in feed; site: liver; lesion: several types; types named in the paper; dosed 46 weeks; study length 64 weeks
Metric: TD50

I'd like to know its TD50. The molecule in question is O=CNNc1nc(-c2ccc([N+](=O)[O-])o2)cs1
30.1 mg/kg/day

====

test system: rodent lifetime carcinogenesis bioassay, tumor incidence TD50; assay: carcinogenic potency in animals, long-term in vivo studies, CPDB compilation (AID 1745844); conditions: mouse; strain B6C3F1; females; in drinking water; site: lung; lesion: alveolar/bronchiolar adenoma + alveolar/bronchiolar carcinoma; dosed 104 weeks; study length 105 weeks
Metric: TD50 (mg/kg/day)
// note: answer is a bare numeric in mg/kg/day

If you can, please state the reported TD50 value of O .
13400

====

test system: rodent lifetime carcinogenesis bioassay, tumor incidence TD50; assay: carcinogenic potency in animals, long-term in vivo studies, CPDB compilation (AID 1745844); conditions: rat; strain Fischer 344; females; by gavage; site: liver; lesion: hepatocellular adenoma + hepatocellular carcinoma + neoplastic nodule; dosed 103 weeks; study length 104 weeks
Rule: TD50 below 2000 mg/kg/day gives T. Equal to or above 2000 mg/kg/day gives F.

Is the reported TD50 for CC(=O)OC1CC(C)OC(C)O1 (stereo not given) strictly below 2000 mg/kg/day?
F

Criterion: TD50 strictly below 2000 mg/kg/day. Is it met by O=[N+]([O-])c1ccc(Nc2ccc(Nc3ccccc3)c(S(=O)(=O)O)c2)c([N+](=O)[O-])c1 ?
F

hey, is TD50 for c1ccc2occc2c1 lower than 2000 mg/kg/day or not?
F

Dear reviewer, please state whether CC(O)c1ccccc1 (stereo not given) has TD50 strictly beneath 2000 mg/kg/day.
F

Decide: TD50 of Clc1ccccc1 strictly below 2000 mg/kg/day?
T

Report whether reported TD50 is lower than 2000 mg/kg/day (strictly) for C=CC1CC=CCC1 (stereo not given)
F

Bench note: check whether c1ccoc1 shows TD50 below 2000 mg/kg/day
T

is_below(TD50, 2000 mg/kg/day) for [Cl][Hg][Cl] ?
T

Determine if CCCCCCc1ccc(O)cc1O shows TD50 strictly lower than 2000 mg/kg/day.
F

Given CN(C)CCC(c1ccc(Cl)cc1)c1ccccn1 (stereo not given) , is recorded TD50 strictly lower than 2000 mg/kg/day?
F

Does the reported TD50 of the following compound sit strictly below 2000 mg/kg/day? C[C@H](CCC(=O)O)[C@H]1CC[C@H]2[C@@H]3CC[C@@H]4C[C@H](O)CC[C@]4(C)[C@H]3CC[C@]12C
T

Item COc1c(Cl)c(Cl)c(Cl)c(Cl)c1Cl : TD50 beneath 2000 mg/kg/day, strictly?
T

Say whether its TD50 is strictly beneath 2000 mg/kg/day. Entry: Cc1cccc(C)c1
F

Please check: TD50 for ClCC(Cl)(Cl)Cl , strictly under 2000 mg/kg/day or not?
F

Please state whether TD50 is below 2000 mg/kg/day for c1cc(OCC2CO2)cc(OCC2CO2)c1 (stereo not given)
T

Please check: TD50 for CC(I)C1OCC(CO)O1 (stereo not given) , strictly under 2000 mg/kg/day or not?
F

TD50 under 2000 mg/kg/day? Item: S=[Se]
T

Hi there! Is TD50 for COC(N)=O below 2000 mg/kg/day, do you know?
T

Find out if reported TD50 for CCCN(CCC)S(=O)(=O)c1ccc(C(=O)O)cc1 is less than 2000 mg/kg/day
T
